# test.summary: VP16 transactivation inhibitors, counter-screen for SRC1 inhibitor project, cell-based, luminescence, high throughput (AID 588824)
# condition.details: cell-based VP16 transactivation luciferase luminescence; at 3.6 µM
The source made the active and inactive calls. No stated cut-off is given here; in the data, active means inhibition above about 25%; inactive means the rest.
Possible outcomes: 1.0 (active), 0.0 (inactive)

{"columns": ["molecule", "assigned.category"],
 "data": [
  ["CC1=CC2OC3CC4OC(=O)C=CC=CC(C(C)O)OCC(O)C5(C)OC5C(=O)OCC2(CC1O)C4(C)C31CO1 (configuration not stated)", 1.0],
  ["CCCc1nc2ccc(Br)cc2c(=O)n1-c1ccc([N+](=O)[O-])c(C(F)(F)F)c1", 0.0],
  ["Cc1c2ccncc2c(C)c2c1[nH]c1ccccc12", 1.0],
  ["CC(=O)OC1C(=O)OCC23CCC4(C)OC4C2OC2CC(OC(=O)C=CC=CC(=O)OCCC1C)C3(C)C21CO1 (configuration not stated)", 1.0],
  ["Cc1cccc(C)c1-n1nnnc1C(c1cc2ccccc2o1)N1CCC(n2c(=O)[nH]c3ccccc32)CC1 (configuration not stated)", 1.0],
  ["Cc1ccccc1-[n+]1c(-c2ccccc2)cc(-c2ccccc2)cc1-c1ccccc1", 1.0],
  ["CC(C)CNc1c2c(nc3ccccc13)CCC2", 0.0]
]}

====

# test.summary: VP16 transactivation reporter inhibitors, counter-screen for LRH-1 inverse agonist project, cell-based, luminescence, high throughput (AID 651615)
# condition.details: Gal4-VP16 luciferase reporter cells, at 3.6 µM, hits give high values
Listed next: entries and their corresponding inhibition.
measured.parameter: inhibition (%)

{"columns": ["compound", "measurement.units", "data.value"],
 "data": [
  ["C[C@H]1CCC/C=C/[C@@H]2C[C@H](O)C[C@H]2[C@@H](O)/C=C/C(=O)O1", "%", 74.8],
  ["CC1=CC2OC3CC4OC(=O)C=CC=CC(C(C)O)OCC(O)C5(C)OC5C(=O)OCC2(CC1O)C4(C)C31CO1 (stereo not given)", "%", 96.2],
  ["N#Cc1ccc(Cn2cc(C=O)c3ccccc32)cc1", "%", 1.97],
  ["CCC(C)C(NC(=O)CCCNC(=O)CCC(=O)OC1O[C@H]2OC3(C)CC[C@H]4[C@H](C)CCC(C1C)C24OO3)C(=O)O (stereo not given in full)", "%", 82.9],
  ["CC(C)(O)/C=C/C(=O)C(C)(O)C1C(O)CC2(C)C3CC=C4C(C=C(O)C(=O)C4(C)C)C3(C)C(=O)CC12C (stereo not given)", "%", 86.1],
  ["OC1(c2ccc(F)cc2)CC2CCC(C1)N2Cc1nnnn1C1CCCC1 (stereo not given)", "%", -0.39],
  ["CCCCCCCCCCCCn1ccc(=N)cc1", "%", 89.8],
  ["CC1=CC(=Cc2sc3ccccc3[n+]2C)C=C(C)O1", "%", 87.6],
  ["COc1cc2cc(C(=O)N3CC(COS(C)(=O)=O)c4ccc(O)cc43)[nH]c2c(OC)c1OC (stereo not given)", "%", 98.2],
  ["CC12CCC3C(CCC4(O)CC(O)CCC34C=NO)C1(O)CCC2C1=COC(=O)C1 (stereo not given)", "%", 89.2]
]}
